- Tested on: MV4;11 cells
- Run description: Cell viability assay (CellTiter-Glo) in MV4;11 cells, alone or with gilteritinib
- Assay type: cell-based
- Experimental parameters: Homo sapiens, MV4-11, 72 h, MV4;11 cells, with 10 nM gilteritinib, 3 days, CellTiter-Glo; read-out: MV4; 11 IC50 gilteritinib
Entries annotated with measured IC50

{"Compound": "O=C1CCC(N2C(=O)c3ccc(NCCCCCC(=O)N4CCC(n5cc(-c6cnc7ccccc7n6)cn5)CC4)cc3C2=O)C(=O)N1 (stereo not shown)", "Value relation sign": "=", "IC50, nM": 1.8}
{"Compound": "O=C1CCC(N2C(=O)c3ccc(NCCCCCC(=O)N4CCC(n5cc(-c6ccc7ccccc7n6)cn5)CC4)cc3C2=O)C(=O)N1 (stereo not shown)", "Value relation sign": "=", "IC50, nM": 4.6}
{"Compound": "O=C1CCC(N2Cc3cc(CNC(=O)C(F)(F)CCC(=O)N4CCC(n5cc(-c6cnc7cccc(Br)c7n6)cn5)CC4)ccc3C2=O)C(=O)N1 (stereo not shown)", "Value relation sign": "=", "IC50, nM": 9.9}
{"Compound": "O=C1CCC(N2C(=O)c3ccc(NCCCCCC(=O)N4CCC(N5CCCCC5)CC4)cc3C2=O)C(=O)N1 (stereo not shown)", "Value relation sign": ">", "IC50, nM": 10000}
{"Compound": "O=C1CCC(N2Cc3cc(NC(=O)CCCCC(=O)N4CCC(n5cc(-c6cnc7cccc(Br)c7n6)cn5)CC4)ccc3C2=O)C(=O)N1 (stereo not shown)", "Value relation sign": "=", "IC50, nM": 3}
{"Compound": "O=C1CCC(N2C(=O)c3ccc(NCCCCCC(=O)N4CCC(n5cc(-c6cnc7cccc(Br)c7n6)cn5)CC4)cc3C2=O)C(=O)N1 (stereo not shown)", "Value relation sign": "=", "IC50, nM": 3}
{"Compound": "O=C1CCC(N2Cc3cc(OCCOCCC(=O)N4CCC(n5cc(-c6cnc7cccc(Br)c7n6)cn5)CC4)ccc3C2=O)C(=O)N1 (stereo not shown)", "Value relation sign": "=", "IC50, nM": 0.9}
